Data provenance is patent US6448273B1.

Reported pKa, second value (s) values for the following compounds.
test: pKa of the ligand; assay type: physicochemical; conditions: method marked (s), second pKa
Structures can show the parent of a compound that is named as a salt.
Form: value (number only, do not type unit).

CCn1c(C)cc(=O)c(O)c1CO [CP369, hydrochloride]	9.38
CC(O)c1c(O)c(=O)ccn1CCCO (stereo not shown) [CP372, hydrochloride]	8.69
O=c1ccn(CCCO)c(CO)c1O [CP366]	9.14

# ---- query compound ----
Task: For the compound shown here, CCn1ccc(=O)c(O)c1CO [CP359, hydrochloride] , give the reported pKa, second value (s).
Output: 9.05

---

test: pM for Iron III (affinity for iron as Fe III); assay type: physicochemical; details: negative log ferric ion concentration; total iron 10^-6 M, ligand 10^-5 M
Structures can show the parent of a compound that is named as a salt.
recorded_endpoint: pMpH 7.45
Give a plain numeric answer without units written out.

Worked cases, answers included:
Cc1cc(=O)c(O)c(CO)n1C [CP360, hydrochloride]	20.43
Cc1cc(=O)c(O)c(C(=O)N(C)C)n1C [CP508, hydrochloride]	23.46
Cc1cc(=O)c(O)c(C(=O)NC(C)C)n1C [CP504, hydrochloride]	22.46
CCn1ccc(=O)c(O)c1CO [CP359, hydrochloride]	20.96

Task: Recorded pMpH 7.45 of CCC(O)c1c(O)c(=O)cc(C)n1C (centres unmarked) [CP374, hydrochloride] , please.
Output: 20.95

---

Consider the following compounds and their measured pKa readings.
experiment: pKa of the ligand; assay type: physicochemical; conditions: method marked (s), second pKa; read-out: pKa, second value (s)
Where a name gives a salt, the structure may show the parent alone.
# respond with the number and nothing more

Task: Entry COCc1cc(=O)c(O)c(COC)n1C [CP388, hydrochloride] : reported pKa = ?
Output: 8.77

Task: Name the recorded pKa for O=C(OCCCn1ccc(=O)c(O)c1CO)c1ccccc1 [CP367, hydrochloride] .
Output: 8.95

Task: Returns the measured pKa for the input compound. Input: COC(C)c1c(O)c(=O)cc(C)n1C (centres unmarked) [CP363, hydrochloride]
Output: 9.43

Task: Entry CNC(=O)c1c(O)c(=O)cc(C)n1C [CP502, hydrochloride] : reported pKa = ?
Output: 8.36

Task: Entry Cc1cc(=O)c(O)c(C(=O)N(C)C)n1C [CP508, hydrochloride] has what pKa?
Output: 8.1

---

Where a name gives a salt, the structure may show the parent alone.
recorded_endpoint: melting point

CNC(=O)c1c(O)c(=O)cc(C)n1C (as salt: hydrochloride) [CP502]	238 °C (dec.)
CCn1c(C)cc(=O)c(O)c1CO (as salt: hydrochloride) [CP369]	160 to 162 °C
CC(O)c1c(O)c(=O)ccn1CCCO (stereo not shown) (as salt: hydrochloride) [CP372]	117 to 120 °C
CCOC(C)c1c(O)c(=O)cc(C)n1C (stereo not shown) (as salt: hydrochloride) [CP373]	195 to 199 °C
COC(C)c1c(O)c(=O)cc(C)n1C (stereo not shown) (as salt: hydrochloride) [CP363]	205 to 207 °C
CCC(O)c1c(O)c(=O)cc(C)n1C (stereo not shown) (as salt: hydrochloride) [CP374]	221 to 223 °C

Task: melting point for O=c1ccn(CCCO)c(CO)c1O [CP366] ?
Output: 138 to 139 °C
